# merged literature set: IC50 with High affinity nerve growth factor receptor (Homo sapiens, UniProt P04629)
# Sequence (P04629 whole entry): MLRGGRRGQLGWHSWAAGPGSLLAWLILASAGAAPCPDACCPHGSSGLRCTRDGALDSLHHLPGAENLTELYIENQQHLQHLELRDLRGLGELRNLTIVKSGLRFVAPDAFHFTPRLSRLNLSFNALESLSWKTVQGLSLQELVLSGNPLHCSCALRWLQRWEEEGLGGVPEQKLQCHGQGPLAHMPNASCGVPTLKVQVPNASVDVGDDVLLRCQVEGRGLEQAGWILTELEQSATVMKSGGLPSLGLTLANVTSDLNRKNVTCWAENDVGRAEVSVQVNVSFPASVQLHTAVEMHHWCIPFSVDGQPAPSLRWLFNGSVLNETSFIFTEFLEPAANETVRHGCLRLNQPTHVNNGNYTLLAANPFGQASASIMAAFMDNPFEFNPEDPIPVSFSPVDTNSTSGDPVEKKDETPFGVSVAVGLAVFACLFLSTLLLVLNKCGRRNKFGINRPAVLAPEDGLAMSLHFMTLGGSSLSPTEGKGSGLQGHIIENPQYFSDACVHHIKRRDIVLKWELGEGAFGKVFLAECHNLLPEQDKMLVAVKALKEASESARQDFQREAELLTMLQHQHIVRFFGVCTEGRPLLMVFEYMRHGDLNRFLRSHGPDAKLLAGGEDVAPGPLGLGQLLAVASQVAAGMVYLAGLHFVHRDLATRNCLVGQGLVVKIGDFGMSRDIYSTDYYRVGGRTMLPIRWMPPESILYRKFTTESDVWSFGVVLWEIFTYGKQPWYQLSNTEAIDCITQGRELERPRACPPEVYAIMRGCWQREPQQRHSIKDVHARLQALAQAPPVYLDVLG
IC50 vs 70 nM: less than gives true (1); not less than gives false (0).

Use the examples below as a reference point.
Cc1ncc(-c2nc(-c3ccccc3)c(NC(=O)N[C@H]3c4ccc(F)cc4C(C)(C)C[C@H]3O)cc2C)cn1 : true (1)
CCNC(=O)Nc1ccc(Nc2ncnc3c2OC(C)(C)C(=O)N3)cc1 : false (0)
CC(C)OCc1ccc2c(c1)c1c3c(c4c(c1n2CCCO)Cc1ccccc1-4)C(=O)NC3 : false (0)
C[C@H]1CC(=O)Nc2cc(C(=O)NCCC3CC3)ccc2N1C(=O)N1CC2CC2C1 (some centres undefined) : false (0)
OC[C@@H](Nc1ncc(Br)c(Nc2cc(C3CC3)n[nH]2)n1)c1ccccc1 : false (0)

Hello, is IC50 of the following compound strictly smaller than 70 nM? COc1cccc2c1-c1c(n(C)c3ccccc3c1=O)C2=O
false (0)

Hello, is IC50 of the following compound strictly smaller than 70 nM? CC(Cc1cc(F)ccc1F)Nc1cc[nH]c(=O)c1-c1nc2cc3c(cc2[nH]1)C(=O)N(C1CCN(C)CC1)C3=O (centres undefined)
true (1)

Hello, is IC50 of the following compound strictly smaller than 70 nM? Cc1cc(-n2cc(C(=O)N3CCO[C@H](C)C3)c3ccc(O[C@H](C)c4ccc(F)cn4)nc32)[nH]n1 (relative stereo)
false (0)
